- Tested on: GM15850
- Method notes: Effect on total ATP level in Friedreich's ataxia disease patient GM15850 cells at 25 uM after 48 hrs by bioluminescence assay relative to control
- Format: functional, Homo sapiens
One threshold, 40%, splits the recorded Activity values: lower ones are t, equal or higher ones are f.

1. CCCCCCCCCCCCCCCCc1nc(N(C)C)nc(C)c1O = f
2. CCCCCCCCCCC1=C(C)C(=O)C(OC)=C(OC)C1=O [DECYLUBIQUINONE] = f
3. Cc1nc(N(C)C)nc(CCCCCCCCCCO)c1O = t
4. COC1=C(OC)C(=O)C(CCCCCCCCCCO)=C(C)C1=O [IDEBENONE] = t
5. CCCCCCCCCCc1nc(N(C)C)nc(C)c1O = f

Data origin: ChEMBL document CHEMBL2396633
